Source: paper PMC4949533

So I've got a bunch of compounds here, and I need their Kd values.
- System tested: Mycobacterium tuberculosis pantothenate synthetase (Mycobacterium tuberculosis, UniProt P9WIL4)
- Construct: gene panC
- Sequence (P9WIL4 2-309 limits assumed): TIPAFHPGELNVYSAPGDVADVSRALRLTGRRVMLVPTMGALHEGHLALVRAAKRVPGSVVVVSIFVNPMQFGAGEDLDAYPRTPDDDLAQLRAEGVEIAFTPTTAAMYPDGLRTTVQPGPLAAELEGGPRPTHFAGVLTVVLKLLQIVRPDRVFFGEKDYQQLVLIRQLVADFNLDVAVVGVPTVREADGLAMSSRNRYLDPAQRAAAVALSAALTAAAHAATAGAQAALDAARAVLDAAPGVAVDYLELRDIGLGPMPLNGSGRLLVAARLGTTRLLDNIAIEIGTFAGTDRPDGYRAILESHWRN
- Test details: isothermal titration calorimetry (ITC)
- Assay type: binding
- Applied conditions: read-out: K D [μM]^[a]
Numbers only, in µM.

{"Structure string": "COc1ccc2c(c1)cc(C(=O)NS(=O)(=O)c1ccc(C(F)(F)F)cc1)n2CC(=O)O", "Kd, µM": 0.2}
{"Structure string": "COc1ccc2c(c1)cc(C(=O)NS(=O)(=O)c1ccc(C(C)(C)C)cc1)n2CC(=O)O", "Kd, µM": 0.46}
{"Structure string": "COc1ccc(S(=O)(=O)NC(=O)c2cc3cc(OC)ccc3n2CC(=O)O)cc1", "Kd, µM": 2}
{"Structure string": "COc1ccc2c(c1)cc(C(=O)NS(=O)(=O)c1ccc(NC(C)=O)cc1)n2CC(=O)O", "Kd, µM": 6}
{"Structure string": "COc1ccc2c(c1)cc(C(=O)NS(=O)(=O)N1CCN(C(C)=O)CC1)n2CC(=O)O", "Kd, µM": 17}

Field: Kd. Fill in for each record below.
1. COc1ccc2c(c1)cc(C(=O)NS(=O)(=O)c1ccc3ccccc3c1)n2CC(=O)O
2. COc1ccc2c(c1)cc(C(=O)NS(=O)(=O)c1ccc(C)cc1)n2CC(=O)O
3. COc1ccc2c(c1)cc(C(=O)NS(=O)(=O)N1CCOCC1)n2CC(=O)O
4. COc1ccc2c(c1)cc(C(=O)NS(=O)(=O)c1ccc(C(F)(F)F)cc1[N+](=O)[O-])n2CC(=O)O

result:
1. 0.61
2. 0.34
3. 3.5
4. 0.8
